Measured values drawn from PubChem BioAssay (NCI) for this set.

Tested on: NCI-H460 lung
Test: NCI tumour cell line growth inhibition, 48 h
# TGI per record follows

Use these answered entries as a reference point.
{"columns": ["compound", "TGI"],
 "data": [
  ["O=[N+]([O-])/C(Cl)=C/C(=C1/Nc2ccccc2O1)[N+](=O)[O-]", "81 µM"],
  ["COC(=O)C1[C@H](c2ccc3c(c2)OCO3)OC(=O)[C@]1(C(=O)OC)C(=O)c1ccc(OC)c(OC)c1 (some centres undefined)", "> 100 µM"],
  ["O=S(=O)(c1cc(Cl)ccc1Cl)N1CCN(c2cccc(Cl)c2)CC1", "> 100 µM"],
  ["COc1ccc(/C=C2\\CCC(CCN3CCOCC3)C2=O)cc1 (centres undefined)", "> 100 µM"],
  ["O=S(=O)(O)c1ccc2c(N=Nc3ccccc3)c(O)ccc2c1", "> 100 µM"]
]}

Q: Field request: TGI | item: COC(=O)Cn1c(=O)oc2nc(-c3ccccc3)cc(C(F)(F)F)c21
Result: > 100 µM

Q: Can you check COc1cc(/C=C2\N=C(c3ccccc3)N(c3nc4ccc(Sc5ccccc5)cc4[nH]3)C2=O)cc(OC)c1OC next?
Result: 51.4 µM

Q: Next: C/C=C\C(CC(=O)OC)CC(=O)N(CCC1CN(S(=O)(=O)C(F)(F)F)c2ccccc21)Cc1ccc(OC)cc1OC (centres undefined)
Result: > 100 µM

Q: Try the compound Cc1ccccc1Nc1nc(NNC(=O)Cc2ccccc2)nc(NNC(=O)c2ccncc2)n1
Result: > 10 µM
